Reference source: patent US20060223837A1

Each entry below carries its reported pIC50.
EXPERIMENTAL TARGET: human VR1 (Homo sapiens, UniProt Q8NER1)
Sequence (Q8NER1 whole entry): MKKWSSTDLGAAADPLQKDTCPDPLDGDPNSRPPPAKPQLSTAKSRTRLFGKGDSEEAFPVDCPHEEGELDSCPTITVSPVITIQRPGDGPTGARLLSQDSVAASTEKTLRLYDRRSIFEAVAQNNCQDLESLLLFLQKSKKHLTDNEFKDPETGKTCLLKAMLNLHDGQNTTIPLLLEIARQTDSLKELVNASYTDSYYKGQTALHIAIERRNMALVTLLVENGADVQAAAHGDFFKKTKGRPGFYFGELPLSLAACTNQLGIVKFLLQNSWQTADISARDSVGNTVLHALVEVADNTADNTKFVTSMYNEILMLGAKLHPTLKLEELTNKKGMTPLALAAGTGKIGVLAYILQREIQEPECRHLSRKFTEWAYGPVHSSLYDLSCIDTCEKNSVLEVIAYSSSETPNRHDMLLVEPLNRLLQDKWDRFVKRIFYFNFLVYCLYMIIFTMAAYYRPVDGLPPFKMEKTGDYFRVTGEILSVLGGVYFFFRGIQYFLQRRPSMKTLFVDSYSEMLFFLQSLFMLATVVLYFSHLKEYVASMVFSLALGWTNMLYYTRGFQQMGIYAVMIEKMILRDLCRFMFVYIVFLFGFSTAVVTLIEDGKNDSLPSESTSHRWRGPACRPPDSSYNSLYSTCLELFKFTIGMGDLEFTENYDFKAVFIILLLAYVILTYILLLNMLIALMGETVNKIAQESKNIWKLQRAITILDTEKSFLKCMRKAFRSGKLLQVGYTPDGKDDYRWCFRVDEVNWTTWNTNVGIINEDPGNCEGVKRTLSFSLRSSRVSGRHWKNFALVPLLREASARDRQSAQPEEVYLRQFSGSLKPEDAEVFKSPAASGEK
TEST NAME: Human VR1 functional assay (FLIPR intracellular Ca2+)
CONDITION PARAMETERS: antagonism of capsaicin-induced Ca2+ increase; read-out: h IC50
pIC50: −log10 of the molar value.
MEASURED PROPERTY: pIC50

[
  {
    "MOLECULE": "Cc1cn(-c2ccc(NC(=O)CCc3ccc(S(=O)(=O)C(F)(F)F)cc3)cc2C(F)(F)F)cn1",
    "EXPERIMENTAL TARGET": "human VR1 (Homo sapiens, UniProt Q8NER1)",
    "MEASURED PROPERTY": "pIC50",
    "OBSERVED VALUE": 7.32
  },
  {
    "MOLECULE": "O=C(CCc1ccccc1)Nc1ccc(-c2ccncc2)c(C(F)(F)F)c1",
    "EXPERIMENTAL TARGET": "human VR1 (Homo sapiens, UniProt Q8NER1)",
    "MEASURED PROPERTY": "pIC50",
    "OBSERVED VALUE": 6.05
  },
  {
    "MOLECULE": "Cc1cc(NC(=O)CCc2ccc(C(C)(C)C)cc2)ccc1-c1ccc(O)cc1",
    "EXPERIMENTAL TARGET": "human VR1 (Homo sapiens, UniProt Q8NER1)",
    "MEASURED PROPERTY": "pIC50",
    "OBSERVED VALUE": 6.38
  },
  {
    "MOLECULE": "CC(C)(C)c1ccc(CCC(=O)Nc2ccc(-c3csnn3)cc2)cc1",
    "EXPERIMENTAL TARGET": "human VR1 (Homo sapiens, UniProt Q8NER1)",
    "MEASURED PROPERTY": "pIC50",
    "OBSERVED VALUE": 9.55
  },
  {
    "MOLECULE": "CC(C)(C)c1ccc(CCC(=O)Nc2ccccc2-c2ccc(CO)cc2)cc1",
    "EXPERIMENTAL TARGET": "human VR1 (Homo sapiens, UniProt Q8NER1)",
    "MEASURED PROPERTY": "pIC50",
    "OBSERVED VALUE": 5.68
  },
  {
    "MOLECULE": "O=C(CCc1ccc(C(F)(F)F)cc1)Nc1cnc(-c2cccnc2)c(C(F)(F)F)c1",
    "EXPERIMENTAL TARGET": "human VR1 (Homo sapiens, UniProt Q8NER1)",
    "MEASURED PROPERTY": "pIC50",
    "OBSERVED VALUE": 6.21
  },
  {
    "MOLECULE": "O=C(CCc1ccc(C(F)(F)F)cc1)Nc1ccc(C2=NOS(=O)N2)c(C(F)(F)F)c1 (centres unmarked)",
    "EXPERIMENTAL TARGET": "human VR1 (Homo sapiens, UniProt Q8NER1)",
    "MEASURED PROPERTY": "pIC50",
    "OBSERVED VALUE": 6.31
  },
  {
    "MOLECULE": "Cc1cc(NC(=O)CCc2ccc(C(C)(C)C)cc2)cnc1-c1ccccn1",
    "EXPERIMENTAL TARGET": "human VR1 (Homo sapiens, UniProt Q8NER1)",
    "MEASURED PROPERTY": "pIC50",
    "OBSERVED VALUE": 6.53
  },
  {
    "MOLECULE": "O=C(CCc1ccc(C(F)(F)F)cc1)Nc1cnc(-c2ccc(O)cc2)c(C(F)(F)F)c1",
    "EXPERIMENTAL TARGET": "human VR1 (Homo sapiens, UniProt Q8NER1)",
    "MEASURED PROPERTY": "pIC50",
    "OBSERVED VALUE": 6.90
  },
  {
    "MOLECULE": "O=C(CCc1ccc(C(F)(F)F)cc1)Nc1ccc(-n2cnc3ccccc32)c(C(F)(F)F)c1",
    "EXPERIMENTAL TARGET": "human VR1 (Homo sapiens, UniProt Q8NER1)",
    "MEASURED PROPERTY": "pIC50",
    "OBSERVED VALUE": 6.02
  },
  {
    "MOLECULE": "Cc1cc(NC(=O)CCc2ccc(C(C)(C)C)cc2)cc(C)c1-c1ccncc1",
    "EXPERIMENTAL TARGET": "human VR1 (Homo sapiens, UniProt Q8NER1)",
    "MEASURED PROPERTY": "pIC50",
    "OBSERVED VALUE": 6.74
  },
  {
    "MOLECULE": "Cn1cncc1-c1ccc(NC(=O)CCc2ccc(C(C)(C)C)cc2)cc1",
    "EXPERIMENTAL TARGET": "human VR1 (Homo sapiens, UniProt Q8NER1)",
    "MEASURED PROPERTY": "pIC50",
    "OBSERVED VALUE": 9.01
  },
  {
    "MOLECULE": "O=C(CCc1ccc(Cl)cc1)Nc1ccc(-n2cnc(Cl)c2Cl)c(C(F)(F)F)c1",
    "EXPERIMENTAL TARGET": "human VR1 (Homo sapiens, UniProt Q8NER1)",
    "MEASURED PROPERTY": "pIC50",
    "OBSERVED VALUE": 6.62
  },
  {
    "MOLECULE": "Cc1cc(NC(=O)CCc2ccc(C(C)(C)C)cc2)cc(C)c1-c1cccnc1",
    "EXPERIMENTAL TARGET": "human VR1 (Homo sapiens, UniProt Q8NER1)",
    "MEASURED PROPERTY": "pIC50",
    "OBSERVED VALUE": 5.54
  },
  {
    "MOLECULE": "CC(C)(C)c1ccc(CCC(=O)Nc2cccc(-c3ncccn3)c2)cc1",
    "EXPERIMENTAL TARGET": "human VR1 (Homo sapiens, UniProt Q8NER1)",
    "MEASURED PROPERTY": "pIC50",
    "OBSERVED VALUE": 6.42
  },
  {
    "MOLECULE": "O=C(CCc1ccc([S+]([O-])C(F)(F)F)cc1)Nc1ccc(-n2cnc(Cl)c2Cl)c(C(F)(F)F)c1 (centres unmarked)",
    "EXPERIMENTAL TARGET": "human VR1 (Homo sapiens, UniProt Q8NER1)",
    "MEASURED PROPERTY": "pIC50",
    "OBSERVED VALUE": 6.34
  },
  {
    "MOLECULE": "O=C(CCc1ccc(C(F)(F)F)cc1)Nc1cnc(-c2ccc(CO)cc2)c(C(F)(F)F)c1",
    "EXPERIMENTAL TARGET": "human VR1 (Homo sapiens, UniProt Q8NER1)",
    "MEASURED PROPERTY": "pIC50",
    "OBSERVED VALUE": 6.82
  },
  {
    "MOLECULE": "O=C(CCc1ccc(C(F)(F)F)cc1)Nc1ccc(-n2ccnc2)c(C(F)(F)F)c1",
    "EXPERIMENTAL TARGET": "human VR1 (Homo sapiens, UniProt Q8NER1)",
    "MEASURED PROPERTY": "pIC50",
    "OBSERVED VALUE": 7.40
  },
  {
    "MOLECULE": "CC(C)(C)c1ccc(CCC(=O)Nc2ccc(-n3cncn3)cc2)cc1",
    "EXPERIMENTAL TARGET": "human VR1 (Homo sapiens, UniProt Q8NER1)",
    "MEASURED PROPERTY": "pIC50",
    "OBSERVED VALUE": 8.42
  },
  {
    "MOLECULE": "CC(C)(C)c1ccc(CCC(=O)Nc2cnc(-n3cnc(Cl)c3Cl)c(C(F)(F)F)c2)cc1",
    "EXPERIMENTAL TARGET": "human VR1 (Homo sapiens, UniProt Q8NER1)",
    "MEASURED PROPERTY": "pIC50",
    "OBSERVED VALUE": 6.83
  },
  {
    "MOLECULE": "Cc1cc(NC(=O)/C=C/c2ccc(N(C)C3CCCCC3)cc2)cnc1-n1cnc(Cl)c1Cl",
    "EXPERIMENTAL TARGET": "human VR1 (Homo sapiens, UniProt Q8NER1)",
    "MEASURED PROPERTY": "pIC50",
    "OBSERVED VALUE": 6.40
  },
  {
    "MOLECULE": "O=C(CCc1ccc(C(F)(F)F)cc1)Nc1ccc(-n2cnc(C(F)(F)F)c2)c(C(F)(F)F)c1",
    "EXPERIMENTAL TARGET": "human VR1 (Homo sapiens, UniProt Q8NER1)",
    "MEASURED PROPERTY": "pIC50",
    "OBSERVED VALUE": 6.47
  },
  {
    "MOLECULE": "Cc1cc(NC(=O)CCc2ccc(C(C)(C)C)cc2)ccc1-c1ccccc1O",
    "EXPERIMENTAL TARGET": "human VR1 (Homo sapiens, UniProt Q8NER1)",
    "MEASURED PROPERTY": "pIC50",
    "OBSERVED VALUE": 6.64
  },
  {
    "MOLECULE": "Cc1cc(NC(=O)CCc2ccc(C(C)(C)C)cc2)cnc1-n1ccnc1",
    "EXPERIMENTAL TARGET": "human VR1 (Homo sapiens, UniProt Q8NER1)",
    "MEASURED PROPERTY": "pIC50",
    "OBSERVED VALUE": 7.14
  },
  {
    "MOLECULE": "O=C(CCc1ccc(C(F)(F)F)cc1)Nc1cnc(-n2ccnc2)c(C(F)(F)F)c1",
    "EXPERIMENTAL TARGET": "human VR1 (Homo sapiens, UniProt Q8NER1)",
    "MEASURED PROPERTY": "pIC50",
    "OBSERVED VALUE": 6.42
  },
  {
    "MOLECULE": "Cc1cc(NC(=O)CCc2ccc(C(C)(C)C)cc2)ccc1-c1cccc(O)c1",
    "EXPERIMENTAL TARGET": "human VR1 (Homo sapiens, UniProt Q8NER1)",
    "MEASURED PROPERTY": "pIC50",
    "OBSERVED VALUE": 6.31
  },
  {
    "MOLECULE": "Cc1cc(NC(=O)CCc2ccc(C(C)(C)C)cc2)cnc1-c1cccc(O)c1",
    "EXPERIMENTAL TARGET": "human VR1 (Homo sapiens, UniProt Q8NER1)",
    "MEASURED PROPERTY": "pIC50",
    "OBSERVED VALUE": 7.44
  },
  {
    "MOLECULE": "CC(C)(C)c1ccc(CCC(=O)Nc2cc(F)c(-c3cccnc3)c(F)c2)cc1",
    "EXPERIMENTAL TARGET": "human VR1 (Homo sapiens, UniProt Q8NER1)",
    "MEASURED PROPERTY": "pIC50",
    "OBSERVED VALUE": 5.81
  },
  {
    "MOLECULE": "O=C(CCc1ccc(C(F)(F)F)cc1)Nc1ccc(-c2ccnc(F)c2)c(C(F)(F)F)c1",
    "EXPERIMENTAL TARGET": "human VR1 (Homo sapiens, UniProt Q8NER1)",
    "MEASURED PROPERTY": "pIC50",
    "OBSERVED VALUE": 6.00
  },
  {
    "MOLECULE": "Cc1cc(NC(=O)CCc2ccc(C(F)(F)F)cc2)cnc1-n1cnc(Cl)c1Cl",
    "EXPERIMENTAL TARGET": "human VR1 (Homo sapiens, UniProt Q8NER1)",
    "MEASURED PROPERTY": "pIC50",
    "OBSERVED VALUE": 7.45
  },
  {
    "MOLECULE": "Cc1cn(-c2ccc(NC(=O)CCc3ccc(C(F)(F)F)cn3)cc2C(F)(F)F)cn1",
    "EXPERIMENTAL TARGET": "human VR1 (Homo sapiens, UniProt Q8NER1)",
    "MEASURED PROPERTY": "pIC50",
    "OBSERVED VALUE": 6.59
  },
  {
    "MOLECULE": "O=C(CCc1ccc(SC(F)(F)F)cc1)Nc1ccc(-n2cnc(Cl)c2Cl)c(C(F)(F)F)c1",
    "EXPERIMENTAL TARGET": "human VR1 (Homo sapiens, UniProt Q8NER1)",
    "MEASURED PROPERTY": "pIC50",
    "OBSERVED VALUE": 6.45
  },
  {
    "MOLECULE": "Cc1cc(NC(=O)CCc2ccc(C(C)(C)C)cc2)cnc1-c1cccc(C#N)c1",
    "EXPERIMENTAL TARGET": "human VR1 (Homo sapiens, UniProt Q8NER1)",
    "MEASURED PROPERTY": "pIC50",
    "OBSERVED VALUE": 6.27
  },
  {
    "MOLECULE": "O=C(CCc1ccc(C(F)(F)F)cc1)Nc1ccc(-c2ccc(CO)cc2)c(C(F)(F)F)c1 [Cpd 223]",
    "EXPERIMENTAL TARGET": "human VR1 (Homo sapiens, UniProt Q8NER1)",
    "MEASURED PROPERTY": "pIC50",
    "OBSERVED VALUE": 6.85
  },
  {
    "MOLECULE": "Cc1cc(NC(=O)CCc2ccc(C(C)(C)C)cc2)cnc1-n1cnc(Cl)c1Cl",
    "EXPERIMENTAL TARGET": "human VR1 (Homo sapiens, UniProt Q8NER1)",
    "MEASURED PROPERTY": "pIC50",
    "OBSERVED VALUE": 7.13
  }
]
